Value source: paper PMC11882969

Answer each item with its documented GoB hCB1.
target: UniProt:P21554; test: bioSensAll ebBRET signaling profiling, hCB1; type: cell-based; parameters: host or cells: HEK293SL cells, transient PEI transfection; details: Log [Compound] (M) -7.55284; single replicate values, FigS6a
Kindly provide the number alone.

Requested read-out: GoB hCB1. Entry: Cc1cc(C(=O)N2CC3(CCC3)[C@H]2[C@H]2CCCO2)nn1-c1cccc(C(F)(F)F)c1 [‘1651]
3.478

Likewise for COC(=O)[C@@H]1[C@@H]2CC[C@@H]2CN1C(=O)c1cc(C)n(-c2cccc(C(F)(F)F)c2)n1 [‘6448] ?
3.137

Likewise for Cc1cc(C(=O)N2CC3(CCC3)[C@H]2[C@@H]2CCCO2)nn1-c1cccc(C(F)(F)F)c1 [‘5490] ?
4.971

Likewise for Cc1nn(Cc2ccc(Cl)cc2)c(C)c1C(=O)OCC1CSc2ccccc2O1 (centres unmarked) [‘5463] ?
-3.8083

Likewise for Cc1cc(C(=O)NC(c2ccco2)c2ccco2)nn1-c1cccc(C(F)(F)F)c1 [‘1090] ?
40.506

Likewise for COc1cccc(C(NC(=O)c2cc(C)n(-c3cccc(C(F)(F)F)c3)n2)c2ccco2)c1 (centres unmarked) [‘1087] ?
2.687

Likewise for Cc1cc(C(=O)NC(c2ccccc2)c2ccco2)nn1-c1cccc(C(F)(F)F)c1 (centres unmarked) [‘1081] ?
14.1424

Likewise for Brc1cc2c(cc1Cc1noc(-c3cnn(CC4CC4)c3)n1)OCO2 [‘5424] ?
-14.0342

----------
molecular target: hCB1 (Homo sapiens, UniProt P21554); assay: bioSensAll ebBRET signaling profiling, hCB1; format: cell-based; set-up: host or cells: HEK293SL cells, transient PEI transfection; conditions: Gi1 biosensor; Log [Compound] (M) -5.05788
Sequence (P21554 whole entry): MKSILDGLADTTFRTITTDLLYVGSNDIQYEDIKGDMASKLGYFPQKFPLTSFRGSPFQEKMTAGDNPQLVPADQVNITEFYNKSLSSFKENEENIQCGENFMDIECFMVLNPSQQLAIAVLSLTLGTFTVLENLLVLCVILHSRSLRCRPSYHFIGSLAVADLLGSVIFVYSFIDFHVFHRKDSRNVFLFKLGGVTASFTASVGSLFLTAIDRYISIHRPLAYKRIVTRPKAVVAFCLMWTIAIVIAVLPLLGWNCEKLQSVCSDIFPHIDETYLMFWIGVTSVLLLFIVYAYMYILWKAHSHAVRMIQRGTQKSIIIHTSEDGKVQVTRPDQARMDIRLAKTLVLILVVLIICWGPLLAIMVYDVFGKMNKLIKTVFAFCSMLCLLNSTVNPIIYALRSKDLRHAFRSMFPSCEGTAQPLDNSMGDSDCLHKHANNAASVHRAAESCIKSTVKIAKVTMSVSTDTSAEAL
# Gi1 hCB1 response binned as bottom = under 50, middle = from 50 up to 90, top = 90 and over

Kindly identify the class of Cc1cc(C(=O)N(C)C(c2ccco2)c2ccco2)nn1-c1cccc(C(F)(F)F)c1 .
bottom

Likewise for CC(=O)C(c1cccs1)N(C)C(=O)c1cc(C)n(-c2cccc(C(F)(F)F)c2)n1 (stereo not shown) ?
middle

Likewise for Cc1cc(C(=O)N(C)C(c2ccccc2)c2ccco2)nn1-c1cccc(C(F)(F)F)c1 (stereo not shown) ?
bottom

Likewise for COC(=O)C(NC(=O)c1cc(C)n(-c2cccc(C(F)(F)F)c2)n1)c1cccs1 (stereo not shown) ?
top

Likewise for COc1cccc(C(NC(=O)c2cc(C)n(-c3cccc(C(F)(F)F)c3)n2)c2ccco2)c1 (stereo not shown) ?
bottom

Likewise for COC(=O)[C@](C)(NC(=O)c1cc(C)n(-c2cccc(C(F)(F)F)c2)n1)c1cccs1 ?
top

Likewise for COC(=O)[C@@H]1[C@@H]2CC[C@@H]2CN1C(=O)c1cc(C)n(-c2cccc(C(F)(F)F)c2)n1 ?
top

Likewise for Cc1cc(C(=O)NC(c2ccccc2)c2ccco2)nn1-c1cccc(C(F)(F)F)c1 (stereo not shown) ?
middle

Likewise for COC(=O)[C@@H]1[C@@H]2CCC[C@@H]2CN1C(=O)c1cc(C)n(-c2cccc(C(F)(F)F)c2)n1 ?
top

----------
target: UniProt P21554; test: bioSensAll ebBRET signaling profiling, hCB1; type: cell-based; set-up: host or cells: HEK293SL cells, transient PEI transfection; details: Log [Compound] (M) -6.31878; single replicate values, FigS6a
Returns: string. Value is true if measured Gi1 hCB1 is below 30, and false if it is greater than or equal to it.

State whether 30 exceeds Gi1 hCB1 recorded for COc1cccc(C(NC(=O)c2cc(C)n(-c3cccc(C(F)(F)F)c3)n2)c2ccco2)c1 (centres unmarked) .
true

Likewise for COC(=O)[C@@H]1[C@@H]2CCC[C@@H]2CN1C(=O)c1cc(C)n(-c2cccc(C(F)(F)F)c2)n1 ?
false

Likewise for Cc1cc(C(=O)NC(c2ccco2)c2ccco2)nn1-c1cccc(C(F)(F)F)c1 ?
false

Likewise for Cc1cc(C(=O)N2CC3(CCC3)[C@H]2[C@H]2CCCO2)nn1-c1cccc(C(F)(F)F)c1 ?
true

Likewise for Cn1nc(-c2nnc(C(C)(C)Oc3ccc(Cl)cc3)o2)c2ccccc2c1=O ?
true

Likewise for Cc1cc(C(=O)N2CC3(CCC3)[C@@H]2[C@@H]2CCCO2)nn1-c1cccc(C(F)(F)F)c1 ?
true

Likewise for Cc1cc(C(=O)NC(c2ccccc2)c2ccco2)nn1-c1cccc(C#N)c1 (centres unmarked) ?
true
